measurementProtocol: physchem
assayContext: octanol/buffer
quantityMeasured: logP

In the examples that follow, each entry is paired with its recorded logP.
Input: Sample O=C(CC(F)(F)F)NCCc1ccc(Cl)c(CN(C(=O)[C@H]2CNCC(=O)N2c2ccc(OCCCOCc3ccccc3)cc2)C2CC2)c1 — what was its logP?
Output: 5.38

Input: Sample COc1ccccc1COCCCOc1ncc(N2C(=O)CNC[C@@H]2C(=O)N(Cc2cc(CNC(=O)CC(F)(F)F)ccc2Cl)C2CC2)cn1 — what was its logP?
Output: 3.23

Input: Sample COc1ccccc1COCCCOc1ccc(N2C(=O)CNC[C@@H]2C(=O)N(Cc2cc(CNC3CC3)ccc2Cl)C2CC2)cc1 — what was its logP?
Output: 5.53

P = COCCc1ccc(Cl)c(CN(C(=O)[C@H]2CNCC(=O)N2c2ccc(OCCOc3c(Cl)cc(C)cc3Cl)nc2)C2CC2)c1
Q = CCNCc1ccc(Cl)c(CN(C(=O)[C@H]2CNCC(=O)N2c2cnc(OCCCOCc3ccccc3OC)nc2)C2CC2)c1
Input: Which has the higher logP, P or Q ? Selection: enter the item's label.
Output: P
(P: 5.22, Q: 3.21)
